Provenance of the data: the supplement of paper PMC10567573

B1: DLC1 (parent)
chain: KRSWEEHVTHWMGQPFNSDDRNTA

variants of: B1; experiment: protein stability index of a GFP-peptide fusion (GPS, HEK-293T) (PSI 1-6); higher = more stable; settings: c terminus: a fixed tail appended;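 further: lentivirally expressed fusions sorted by FACS into six bins by GFP to DsRed ratio, PSI derived from sequencing read proportions per bin multiplied by bin number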
Assign condition met whenever protein stability index does not fall below 3; assign condition not met whenever it does.

>>> print(df.to_string())
                      sequence_code     category_label
 0  KRSWEEHVTHWMGDPFNSDDRNTA [Q14D]  condition not met
 1  KRSWEEHVTHWMGQYFNSDDRNTA [P15Y]  condition not met
 2  KRSWEEHVTHWMGQPFNSDDRVTA [N22V]  condition not met
 3  KRSWEEHVTHWMGQPFNSDDYNTA [R21Y]  condition not met
 4  KRSWEEHVTPWMGQPFNSDDRNTA [H10P]      condition met
 5   KRSWEEHCTHWMGQPFNSDDRNTA [V8C]      condition met
 6  KRSWEEHVTHWMAQPFNSDDRNTA [G13A]  condition not met
 7  KRSWEEHVTHWMRQPFNSDDRNTA [G13R]  condition not met
 8  KRSWEEHVTHWMHQPFNSDDRNTA [G13H]  condition not met
 9   KRHWEEHVTHWMGQPFNSDDRNTA [S3H]      condition met
10  KRSWEEHVTHWMGQPFNSDDRNKA [T23K]  condition not met
11  KRSWEEHVTHWMGQPFHSDDRNTA [N17H]  condition not met
12  KRSWEEHVTHWMGLPFNSDDRNTA [Q14L]  condition not met
13  KRSWEEHVTHWMSQPFNSDDRNTA [G13S]  condition not met
14   KESWEEHVTHWMGQPFNSDDRNTA [R2E]      condition met
15  KRSWEEHVTHWMGQVFNSDDRNTA [P15V]  condition not met
16   KRSWEWHVTHWMGQPFNSDDRNTA [E6W]  condition not met
17   KRSWAEHVTHWMGQPFNSDDRNTA [E5A]  condition not met
18  KRSWEEHVTHWMGQPFQSDDRNTA [N17Q]      condition met
19  KRSWEEHVTRWMGQPFNSDDRNTA [H10R]  condition not met
20  KRSWEEHVTHWSGQPFNSDDRNTA [M12S]  condition not met
21  KRSWEEHVTHWMGQPFNSDDRNTQ [A24Q]      condition met
22  KRSWEEHVTHWMGQPVNSDDRNTA [F16V]      condition met
23  KRSWEEHVTHWMGQPFMSDDRNTA [N17M]  condition not met
24  KRSWEEHVTHWMGQPFNSDDHNTA [R21H]  condition not met
25  KRSWEEHVTHWMGQPFNSVDRNTA [D19V]  condition not met
26  KRSWEEHVTHWMGQPINSDDRNTA [F16I]  condition not met
27   KASWEEHVTHWMGQPFNSDDRNTA [R2A]      condition met
28  KRSWEEHVTHWMGQPFNSDHRNTA [D20H]  condition not met
29  KRSWEEHVTHWMGQPFNSDDKNTA [R21K]      condition met
30  KRSWEEHVTHWIGQPFNSDDRNTA [M12I]  condition not met
31  KRSWEEHVTHWMGQPFPSDDRNTA [N17P]  condition not met
32  KRSWEEHVTHWMGQPFNSDDRNTK [A24K]      condition met
33   KRSCEEHVTHWMGQPFNSDDRNTA [W4C]      condition met
34  KRSWEEHVTHWMGQPFNPDDRNTA [S18P]      condition met
35  KRSWEEHVTHPMGQPFNSDDRNTA [W11P]      condition met
36   KRSGEEHVTHWMGQPFNSDDRNTA [W4G]      condition met
37  KRSWEEHVTHWMGQPFNSDDDNTA [R21D]  condition not met
